- experimental.target: BCRP (Homo sapiens (Human), UniProt Q9UNQ0)
- Sequence (Q9UNQ0 whole entry): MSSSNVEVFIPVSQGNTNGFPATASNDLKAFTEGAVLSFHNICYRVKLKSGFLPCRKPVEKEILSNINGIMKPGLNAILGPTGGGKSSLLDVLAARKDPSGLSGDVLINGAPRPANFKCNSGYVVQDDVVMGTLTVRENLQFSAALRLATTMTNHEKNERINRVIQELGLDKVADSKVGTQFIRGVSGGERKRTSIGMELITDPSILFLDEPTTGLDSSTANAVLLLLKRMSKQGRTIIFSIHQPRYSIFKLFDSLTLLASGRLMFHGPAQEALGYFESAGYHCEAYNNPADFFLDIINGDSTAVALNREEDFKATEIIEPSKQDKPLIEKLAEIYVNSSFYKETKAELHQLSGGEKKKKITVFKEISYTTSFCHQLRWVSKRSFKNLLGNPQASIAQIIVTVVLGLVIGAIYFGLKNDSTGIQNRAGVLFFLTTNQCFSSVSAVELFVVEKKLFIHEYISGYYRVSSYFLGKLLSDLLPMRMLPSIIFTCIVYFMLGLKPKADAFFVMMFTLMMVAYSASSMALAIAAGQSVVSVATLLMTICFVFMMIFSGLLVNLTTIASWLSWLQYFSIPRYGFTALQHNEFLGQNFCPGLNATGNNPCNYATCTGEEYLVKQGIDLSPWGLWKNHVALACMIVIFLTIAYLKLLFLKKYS
- procedure.summary: BCRP transfected MDCKII canine Mdr1 knockout permeability/efflux, Assay 9
- condition.details: dog, Assay 9 Pe Ratio, efflux ratio Papp(B-A)/Papp(A-B), BCRP transfected MDCKII canine Mdr1 knockout
Collected efflux ratio at 2 h, 1 μM values appear next to each entry.

| compound | efflux ratio at 2 h, 1 μM |
| --- | --- |
| CON1CCN(c2ncc3ncnc(Nc4ccc(Oc5ccc6c(c5)ncn6C)c(Cl)c4)c3n2)CC1.O=C(O)C(F)(F)F | 1.4 |
| Cc1cc(Nc2ncnc3cnc(N4C5CCC4COC5)nc23)ccc1Oc1ccc2c(c1)ncn2C | 7.4 |
| Cc1cc(Nc2ncnc3cnc(N4C[C@H]5CC[C@@H]4CO5)nc23)ccc1Oc1ccc2c(c1)ncn2C | 1.1 |
| Cc1cc(Nc2ncnc3cnc(N4C[C@@H]5C[C@H]4CO5)nc23)ccc1Oc1ccc2c(c1)ncn2C | 1.7 |
| Cc1cc(Nc2ncnc3cnc(N(C)C4COC4)nc23)ccc1Oc1ccc2c(c1)ncn2C | 1.5 |
| Cc1cc(Nc2ncnc3cnc(N4C[C@@H](C)O[C@@H](C)C4)nc23)ccc1Oc1ccc2c(c1)ncn2C | 1.4 |
| Cc1cc(Nc2ncnc3cnc(-c4cnco4)nc23)ccc1Oc1ccc2c(c1)ncn2C | 7.2 |
| Cc1cc(Nc2ncnc3cnc(N(C)[C@@H]4CCOC4)nc23)ccc1Oc1ccc2c(c1)ncn2C | 1.4 |
| COC[C@H](O)CN(C)c1ncc2ncnc(Nc3ccc(Oc4ccc5c(c4)ncn5C)c(C)c3)c2n1 (racemic) | 18.2 |
| Cc1cc(Nc2ncnc3cnc(N4C[C@@H]5CC[C@H]4CO5)nc23)ccc1Oc1ccc2c(c1)ncn2C | 1.6 |
| Cc1cc(Nc2ncnc3cnc(N4CC5C(C4)C5(F)F)nc23)ccc1Oc1ccc2c(c1)ncn2C (centres unmarked) | 5.2 |
| Cc1cc(Nc2ncnc3cnc(N(C)C4CCOCC4)nc23)ccc1Oc1ccc2c(c1)ncn2C | 1.4 |
| CO[C@@H]1CN(c2ncc3ncnc(Nc4ccc(Oc5ccc6c(c5)ncn6C)c(C)c4)c3n2)C[C@@H]1O | 32.4 |
| Cc1cc(Nc2ncnc3cnc(N4CC5(CCO5)C4)nc23)ccc1Oc1ccc2c(c1)ncn2C | 3.5 |
| CN(c1ncc2ncnc(Nc3ccc(Oc4ccc5c(c4)ncn5C)c(Cl)c3)c2n1)C1COC1 | 2.4 |
| Cc1cc(Nc2ncnc3cnc(N(C)[C@H]4C[C@H](O)C4)nc23)ccc1Oc1ccc2c(c1)ncn2C | 24.2 |
| FC(F)(F)[C@@H]1CN(c2ncc3ncnc(Nc4ccc(Oc5ccn6ncnc6c5)c(Cl)c4)c3n2)CCN1 | 1 |
| Cc1cc(Nc2ncnc3cnc(N4CC[C@@](C)(O)C4)nc23)ccc1Oc1ccc2c(c1)ncn2C | 34 |
| Cc1cc(Nc2ncnc3cnc(N4CC[C@@](C)(O)C4)nc23)ccc1Oc1ccn2ncnc2c1 | 32.2 |
| Cc1cc(Nc2ncnc3cnc(N(C)[C@H]4CCC[C@@H]4O)nc23)ccc1Oc1ccc2c(c1)ncn2C | 13.5 |
| [2H]c1nc(Nc2ccc(Oc3ccc4c(c3)ncn4C)c(C)c2)c2nc(N3CCOCC3)nc([2H])c2n1 | 0.9 |
| Cc1cc(Nc2ncnc3cnc(N4CCC(F)(F)C4)nc23)ccc1Oc1ccc2c(c1)ncn2C | 1.2 |
| Cc1cc(Nc2ncnc3cnc(N4CCC(C)(O)CC4)nc23)ccc1Oc1ccn2ncnc2c1 | 7.8 |
| CO[C@H]1CN(c2ncc3ncnc(Nc4ccc(Oc5ccc6c(c5)ncn6C)c(C)c4)c3n2)C[C@H]1O | 35.7 |
| Cc1cc(Nc2ncnc3cnc(N4C[C@@H](F)[C@@H](O)C4)nc23)ccc1Oc1ccc2c(c1)ncn2C | 50.1 |
| Cc1cc(Nc2ncnc3cnc(N(C)CC(C)(C)O)nc23)ccc1Oc1cc(F)c2c(c1)ncn2C | 1.9 |
| Cc1cc(Nc2ncnc3cnc(N(C)[C@H]4CCOC4)nc23)ccc1Oc1ccc2c(c1)ncn2C | 1.4 |
| Cc1cc(Nc2ncnc3cnc(N(C)C4CC4)nc23)ccc1Oc1ccc2c(c1)ncn2C | 1.4 |
| Cc1cc(Nc2ncnc3cnc(N4CCC5COCC54)nc23)ccc1Oc1ccc2c(c1)ncn2C (centres unmarked) | 1.7 |
| Cc1cc(Nc2ncnc3cnc(N(C)CC4COC4)nc23)ccc1Oc1ccc2c(c1)ncn2C | 2.3 |
| Cc1cc(Nc2ncnc3cnc(-c4ccncc4)nc23)ccc1Oc1ccc2c(c1)ncn2C [Example 47, bis(2,2,2-trifluoroacetate)] | 2.3 |
| Cc1cc(Nc2ncnc3cnc(N4CCC[C@@](C)(O)C4)nc23)ccc1Oc1ccc2c(c1)ncn2C | 13.2 |

---

- experimental.target: EGFR (Homo sapiens (Human), UniProt P00533)
- Sequence (P00533 25-1210): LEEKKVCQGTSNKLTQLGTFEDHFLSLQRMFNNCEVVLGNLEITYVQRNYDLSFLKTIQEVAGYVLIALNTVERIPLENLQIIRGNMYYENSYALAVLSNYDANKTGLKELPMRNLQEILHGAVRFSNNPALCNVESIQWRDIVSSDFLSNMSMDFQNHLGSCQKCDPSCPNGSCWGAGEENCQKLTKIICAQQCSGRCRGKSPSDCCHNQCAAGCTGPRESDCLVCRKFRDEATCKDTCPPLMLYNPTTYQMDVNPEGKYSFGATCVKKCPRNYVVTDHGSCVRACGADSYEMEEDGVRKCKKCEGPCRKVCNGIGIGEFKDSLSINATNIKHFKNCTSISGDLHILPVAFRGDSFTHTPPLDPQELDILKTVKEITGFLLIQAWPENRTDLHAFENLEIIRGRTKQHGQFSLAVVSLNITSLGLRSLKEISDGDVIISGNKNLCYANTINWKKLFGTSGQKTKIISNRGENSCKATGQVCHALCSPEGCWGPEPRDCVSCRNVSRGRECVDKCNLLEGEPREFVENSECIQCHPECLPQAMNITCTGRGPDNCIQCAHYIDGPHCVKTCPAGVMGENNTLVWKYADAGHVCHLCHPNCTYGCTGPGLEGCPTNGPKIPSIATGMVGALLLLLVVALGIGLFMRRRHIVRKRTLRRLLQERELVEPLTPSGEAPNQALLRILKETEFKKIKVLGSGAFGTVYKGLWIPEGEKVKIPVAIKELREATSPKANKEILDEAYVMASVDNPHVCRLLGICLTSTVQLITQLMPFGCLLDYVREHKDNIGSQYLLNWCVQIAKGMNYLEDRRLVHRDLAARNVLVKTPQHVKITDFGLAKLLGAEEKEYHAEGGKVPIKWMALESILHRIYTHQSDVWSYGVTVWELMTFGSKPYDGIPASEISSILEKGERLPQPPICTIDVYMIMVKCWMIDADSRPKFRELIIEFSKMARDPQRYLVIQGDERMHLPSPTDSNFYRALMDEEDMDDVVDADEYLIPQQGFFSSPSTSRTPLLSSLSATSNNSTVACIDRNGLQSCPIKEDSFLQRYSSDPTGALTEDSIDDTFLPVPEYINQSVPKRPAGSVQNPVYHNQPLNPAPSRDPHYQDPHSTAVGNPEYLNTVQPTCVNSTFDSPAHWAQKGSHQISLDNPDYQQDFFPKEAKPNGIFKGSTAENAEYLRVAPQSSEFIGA
We label by threshold. Values of IC50 strictly beneath 4 µM are satisfied. Values of 4 µM and up are not satisfied.

| compound | answer.label |
| --- | --- |
| Cc1cc(Nc2ncnc3cnc(N4CC[C@@H](O)C4)nc23)ccc1Oc1ccc2c(c1)ncn2C [Example 169] | satisfied |
| Cc1cc(Nc2ncnc3cnc(-c4ncco4)nc23)ccc1Oc1ccc2c(c1)ncn2C [Example 226] | not satisfied |
| Cc1cc(Nc2ncnc3cnc(N4CCOC[C@@H]4C)nc23)ccc1Oc1ccc2c(c1)ncn2C [Example 258] | not satisfied |
| Cc1cc(Nc2ncnc3cnc(N4CCC[C@H]4C(F)F)nc23)ccc1Oc1ccc2c(c1)ncn2C [Example 55] | not satisfied |
| CN(CC1(O)CCC1)c1ncc2ncnc(Nc3ccc(Oc4ccn5ncnc5c4)c(Cl)c3)c2n1 [Example 329] | not satisfied |
| Cc1cc(Nc2ncnc3cnc(N4CC5C(C4)C5(F)F)nc23)ccc1Oc1ccc2c(c1)ncn2C (stereo not drawn) [Example 234] | not satisfied |
| CON1CCN(c2ncc3ncnc(Nc4ccc(Oc5ccc6c(c5)ncn6C)c(Cl)c4)c3n2)CC1.O=C(O)C(F)(F)F [Example 141, 2,2,2-trifluoroacetate] | not satisfied |
| Cc1cc(Nc2ncnc3cnc(O[C@H]4CNCC[C@@H]4F)nc23)ccc1Oc1ccc2c(c1)ncn2C [Example 289] | not satisfied |
| COC1CC2(C1)CN(c1ncc3ncnc(Nc4ccc(Oc5ccc6c(c5)ncn6C)c(C)c4)c3n1)C2 [Example 237] | not satisfied |
| Cc1c(Oc2ccc3c(c2)ncn3C)ccc(Nc2ncnc3cnc(N(C)[C@H]4C[C@@](C)(O)C4)nc23)c1F [Example 116] | satisfied |
| Cc1cc(Nc2ncnc3cnc(O[C@H]4CCNC[C@@H]4F)nc23)ccc1Oc1ccc2c(c1)ncn2C [Example 285] | not satisfied |
| Cc1cc(Nc2ncnc3cnc(N4CCCC45COC5)nc23)ccc1Oc1ccc2c(c1)ncn2C [Example 230] | not satisfied |
| Cc1cc(Nc2ncnc3cnc(N4CCN[C@@H](C)C4)nc23)ccc1Oc1ccc2c(c1)ncn2C [Example 278] | not satisfied |
| CN(CCC(C)(C)O)c1ncc2ncnc(Nc3ccc(Oc4ccc5c(c4)ncn5C)c(Cl)c3)c2n1 [Example 479] | satisfied |
| COC[C@H](O)CN(C)c1ncc2ncnc(Nc3ccc(Oc4ccn5ncnc5c4)c(Cl)c3)c2n1 [Example 325] | not satisfied |

---

- experimental.target: BCRP (Homo sapiens (Human))
- procedure.summary: BCRP transfected MDCKII canine Mdr1 knockout permeability/efflux, Assay 9
- condition.details: dog, Assay 9 Pe Ratio, efflux ratio Papp(B-A)/Papp(A-B), BCRP transfected MDCKII canine Mdr1 knockout

| compound | experimental.target | efflux ratio at 2 h, 1 μM |
| --- | --- | --- |
| Cc1cc(Nc2ncnc3cnc(N4C[C@H]5C[C@@H]4CO5)nc23)ccc1Oc1cc(F)c2c(c1)ncn2C [Example 204] | BCRP (Homo sapiens (Human)) | 1.2 |
| Cc1cc(Nc2ncnc3cnc(N4CCC(O)(C(F)F)CC4)nc23)ccc1Oc1ccc2c(c1)ncn2C [Example 168] | BCRP (Homo sapiens (Human)) | 16.7 |
| Cc1cc(Nc2ncnc3cnc(N4CCN[C@H](C(F)(F)F)C4)nc23)ccc1Oc1ccc2c(c1)ncn2C [Example 172] | BCRP (Homo sapiens (Human)) | 2 |
| Cc1cc(Nc2ncnc3cnc(-c4ccccn4)nc23)ccc1Oc1ccc2c(c1)ncn2C [Example 239] | BCRP (Homo sapiens (Human)) | 3.5 |
| Cc1nc(-c2ncc3ncnc(Nc4ccc(Oc5ccc6c(c5)ncn6C)c(C)c4)c3n2)cs1 [Example 247] | BCRP (Homo sapiens (Human)) | 4.7 |
| Cc1c(Oc2ccc3c(c2)ncn3C)ccc(Nc2ncnc3cnc(N(C)[C@H]4C[C@@](C)(O)C4)nc23)c1F [Example 116] | BCRP (Homo sapiens (Human)) | 1.8 |
| Cc1cc(Nc2ncnc3cnc(N4CC[C@@](C)(O)C4)nc23)c(F)cc1Oc1ccc2c(c1)ncn2C [Example 214] | BCRP (Homo sapiens (Human)) | 8.8 |
| CC(C)(O)[C@@H]1CCN(c2ncc3ncnc(Nc4ccc(Oc5ccn6ncnc6c5)c(Cl)c4)c3n2)C1 [Example 122] | BCRP (Homo sapiens (Human)) | 7.3 |
| Cc1cc(Nc2ncnc3cnc(N4C[C@H](O)C(F)(F)C4)nc23)ccc1Oc1ccc2c(c1)ncn2C [Example 170] | BCRP (Homo sapiens (Human)) | 36 |
| Cc1cc(Nc2ncnc3cnc(N(C)CC4(O)CCC4)nc23)ccc1Oc1ccc2c(c1)ncn2C [Example 164] | BCRP (Homo sapiens (Human)) | 2.2 |
| Cc1cc(Nc2ncnc3cnc(N4CC[C@@H](C(C)(C)O)C4)nc23)ccc1Oc1ccn2ncnc2c1 [Example 124] | BCRP (Homo sapiens (Human)) | 10.3 |
| Cc1cc(Nc2ncnc3cnc(N(C)[C@H]4C[C@@H](O)C4)nc23)ccc1Oc1ccc2c(c1)ncn2C [Example 183] | BCRP (Homo sapiens (Human)) | 19.5 |
| Cc1cc(Nc2ncnc3cnc(N4CC5CC4CO5)nc23)ccc1Oc1ccc2c(c1)ncn2C.O=C(O)C(F)(F)F (stereo not drawn) [Example 77] | BCRP (Homo sapiens (Human)) | 1.9 |
| Cc1cc(Nc2ncnc3cnc(-c4cnsc4)nc23)ccc1Oc1ccc2c(c1)ncn2C [Example 228] | BCRP (Homo sapiens (Human)) | 1 |
| Cc1cc(Nc2ncnc3cnc(N(C)[C@@H]4CCC[C@H]4O)nc23)ccc1Oc1ccc2c(c1)ncn2C [Example 193] | BCRP (Homo sapiens (Human)) | 7 |
